Where do the numbers come from? From patent US4439426A.

Listed here are compounds together with their documented MIC.
Test system: Streptococcus pneumoniae ATCC 6303 LRP 53
Assay: Bacteriostatic power in solid medium (MIC)
Assay type: cell-based
Conditions: Streptococcus pneumoniae, ATCC6303, read-out: Minimum inhibiting concentration
Just the number in µg/mL, nothing appended.

Some entries whose results are on file:
compound	MIC / µg/mL
CC[C@H]1OC(=O)[C@H](C)[C@@H](O[C@H]2C[C@@](C)(OC)[C@@H](O)[C@H](C)O2)[C@H](C)[C@@H](O[C@@H]2O[C@H](C)C[C@H](N(C)C)[C@H]2O)[C@](C)(O)C[C@@H](C)C(=O)[C@H](C)[C@@H](O)[C@]1(C)O [Erythromycin A, reference compound]	0.012
CC[C@H]1OC(=O)[C@H](C)[C@@H](O[C@H]2C[C@H](OC)[C@@H](O)[C@H](C)O2)[C@H](C)[C@@H](O[C@@H]2O[C@H](C)C[C@H](N(C)C)[C@H]2O)[C@](C)(O)C[C@](C)(F)C(=O)[C@H](C)[C@@H](O)[C@H]1C	0.049
CC[C@H]1OC(=O)[C@H](C)[C@@H](O[C@H]2C[C@H](OC)[C@@H](O)[C@H](C)O2)[C@H](C)[C@@H](O[C@@H]2O[C@H](C)C[C@H](N(C)C)[C@H]2O)[C@](C)(O)C[C@](C)(F)C(=O)[C@H](C)[C@@H](O)[C@]1(C)O	0.097

Pending compound:
Give reported MIC value for "CC[C@H]1OC(=O)[C@H](C)[C@@H](O[C@H]2C[C@@](C)(OC)[C@@H](O)[C@H](C)O2)[C@H](C)[C@@H](O[C@@H]2O[C@H](C)C[C@H](N(C)C)[C@H]2O)[C@](C)(O)C[C@](C)(F)C(=O)[C@H](C)[C@@H](O)[C@]1(C)O"
0.024

---

Tested on: Streptococcus pneumoniae ATCC 6303 LRP 35
Assay: Minimum bactericidal concentration (MBC)
Format: cell-based
Details: Streptococcus pneumoniae, ATCC6303, read-out: Minimum bactericidal concentration (MBC)
Listed here are compounds together with their documented MBC.
Just the number in µg/mL, nothing appended.

compound	number
CC[C@H]1OC(=O)[C@H](C)[C@@H](O[C@H]2C[C@H](OC)[C@@H](O)[C@H](C)O2)[C@H](C)[C@@H](O[C@@H]2O[C@H](C)C[C@H](N(C)C)[C@H]2O)[C@](C)(O)C[C@](C)(F)C(=O)[C@H](C)[C@@H](O)[C@]1(C)O	0.097
CC[C@H]1OC(=O)[C@H](C)[C@@H](O[C@H]2C[C@H](OC)[C@@H](O)[C@H](C)O2)[C@H](C)[C@@H](O[C@@H]2O[C@H](C)C[C@H](N(C)C)[C@H]2O)[C@](C)(O)C[C@](C)(F)C(=O)[C@H](C)[C@@H](O)[C@H]1C	0.049
CC[C@H]1OC(=O)[C@H](C)[C@@H](O[C@H]2C[C@@](C)(OC)[C@@H](O)[C@H](C)O2)[C@H](C)[C@@H](O[C@@H]2O[C@H](C)C[C@H](N(C)C)[C@H]2O)[C@](C)(O)C[C@@H](C)C(=O)[C@H](C)[C@@H](O)[C@]1(C)O [Erythromycin A, reference compound]	0.097

Give reported MBC value for "CC[C@H]1OC(=O)[C@H](C)[C@@H](O[C@H]2C[C@@](C)(OC)[C@@H](O)[C@H](C)O2)[C@H](C)[C@@H](O[C@@H]2O[C@H](C)C[C@H](N(C)C)[C@H]2O)[C@](C)(O)C[C@](C)(F)C(=O)[C@H](C)[C@@H](O)[C@]1(C)O"
0.195
